- Tested on: RPMI-8226 leukemia
- experiment-summary: NCI tumour cell line growth inhibition, 48 h
Reported TGI by item:
parameter: TGI

1. CC(NC1CCCC[C@@H]1O)c1ccccc1 (some centres not stated): > 100 µM
2. CC(Cl)(CCC(Cl)C(C)(C)Cl)C(=O)CBr (configuration not stated): 7.99 µM
3. COc1ccc(-c2nc(-c3cnccn3)n(C/C=C/c3ccccc3)n2)cc1: > 100 µM
4. CC(C)(C)OC(=O)NCCCCCCCCCCCCn1c2c(c3ccccc3c1=O)C(=O)c1ccccc1-2: > 100 µM
5. CSCCC(NC(=O)C(Cc1c[nH]c2ccccc12)NC(=O)CCNC(=O)OC(C)(C)C)C(=O)NC(CC(=O)O)C(=O)NC(Cc1ccccc1)C(N)=O (configuration not stated): > 50 µM
6. CSC(=S)NCc1cn(C)c2ccccc12: > 100 µM
7. C/C(=N\NC(=S)N1CCCC1)c1ccccn1: 15.6 µM
8. Cc1noc(-c2ccc(C(=O)O)[nH]2)c1Br: > 100 µM
9. CCOC(=O)/C=C/c1ccc([N+](=O)[O-])o1: 12.2 µM
10. S=C(Nc1ccc(-c2nc3ccccc3s2)cc1)Nc1ccc(-c2nc3ccccc3s2)cc1: > 100 µM
11. C/C(=N\Nc1nc2cc(F)ccc2s1)c1ccccn1: > 100 µM
12. CC12CC(c3ccccc3O1)C(C(=O)Nc1nccs1)C(=O)N2 (configuration not stated): > 100 µM

###

- Tested on: SNB-19 CNS
- experiment-summary: NCI tumour cell line growth inhibition, 48 h
parameter: GI50

1) COc1ccc2c(c1)[n+](=O)c(/C=C/C(=O)c1cc(OC)c(OC)c(OC)c1)c(C)n2[O-]: 29.7 µM
2) COc1c(OC2OC(C)C(O)C(O)C2O)c(OC)c2oc(-c3ccc(O)cc3)cc(=O)c2c1O (centres undefined): 45.2 µM
3) CN(Cc1cnc2nc(N)nc(N)c2n1)c1c(Cl)cc(C(=O)NC(CCC(=O)O)C(=O)O)cc1Cl (centres undefined): 0.0395 µM
4) O=C(OCC1=CC(=O)c2ccccc2C1=O)c1ccccc1: 10.3 µM

###

- System: NCI-H522 lung
- experiment-summary: NCI tumour cell line growth inhibition, 48 h
parameter: TGI

1. N#C/C(=C/C=C/c1cccc(Cl)c1)S(=O)c1ccccc1 (stereo unspecified): 0.804 µM
2. COC(=O)[C@@H]1C=CCN1S(=O)(=O)c1ccc(C)cc1: > 100 µM
3. O=C(CC1(O)CCCCC1)OC1CCCC1: > 100 µM
4. COc1ccc(C2=NNC(c3sc(Cl)nc3Cl)C2)cc1 (stereo unspecified): 7.69 µM
5. CCOC(=O)/C=C(/C(=O)OCC)n1cc(C)c(=O)n(Cc2cn(CCCCOC(C)=O)nn2)c1=O: 4.53 µM
6. CCOC(=O)C(Cc1cc(OC)c(CC(C(=O)OCC)C(=O)OCC)cc1OC)C(=O)OCC: > 100 µM
7. COC1(C)CCC(OS(C)(=O)=O)CO1 (stereo unspecified): > 100 µM
8. CCOC(=O)/C=C/c1ccc([N+](=O)[O-])o1: 3.24 µM
9. OC[C@H]1N[C@H](CO)[C@@H](O)[C@H]1O: > 100 µM
10. C=C(CN1CCc2ccccc2C1)c1ccc(CCCC(=O)Nc2ccccc2N)cc1: 7.15 µM
11. Nc1ccnc2c1ncn2[C@H]1C[C@H](O)[C@@H](CO)O1: > 100 µM

###

- Tested on: NCI-H460 lung
Reported GI50 values for a set of compounds
parameter: GI50

1. COc1ccc(N=c2nc3sc4cc(Cl)ccc4n3c(N)c2C#N)cc1: 21.1 µM
2. Cc1nc(C(=O)OCc2ccccc2)cc(OCc2ccccc2)c1C: 22.7 µM
3. COc1cc(N)c(Cl)cc1C(=O)N[C@@H]1CCN(CCCOc2ccc(F)cc2)C[C@@H]1OC: 66.9 µM
4. N.N.N.N.O=S([O-])[O-].[Co+3].[N-]=[N+]=[N-]: > 100 µM
5. COc1ccc(-c2cn3ccnc3c(-c3ccc(Cl)cc3)n2)cc1: 10.8 µM

###

- Tested on: RXF 393 renal
- experiment-summary: NCI tumour cell line growth inhibition, 48 h
# TGI listing for each entry below
parameter: TGI

1. CCNc1ccc2c(c1)C(=O)N(OS(C)(=O)=O)C2=O: > 100 µM
2. Cc1noc(-c2ccc(C(=O)O)[nH]2)c1Br: > 100 µM
3. COc1c(OC2OC(C)C(O)C(O)C2O)c(OC)c2oc(-c3ccc(O)cc3)cc(=O)c2c1O (stereo unspecified): 66.5 µM
4. COc1ccc(NCn2nc(CCCCCCCCc3nn(CNc4ccc(OC)cc4)c(=S)o3)oc2=S)cc1: > 100 µM
5. O=S1(=O)CCC2=CC(C(F)(F)F)=CC(C(F)(F)F)=CN21: 6.01 µM
6. c1ccc(C2N=C(c3ccccn3)C(c3ccccn3)=NC2c2ccccc2)cc1 (stereo unspecified): > 100 µM
7. CCOC(=O)/C=C(/C(=O)OCC)n1cc(C)c(=O)n(Cc2cn(CCCCOC(C)=O)nn2)c1=O: > 100 µM
8. O=C(O)CCN1C(=S)CSC1=S: > 100 µM
9. O=C(NCCCN1CCN(CCCNC(=O)Nc2cc(Cl)ccc2Cl)CC1)Nc1cc(Cl)ccc1Cl: > 100 µM
10. Cc1c2cc[n+](C)cc2c(C)c2c1[nH]c1ccc(OCC(F)(F)F)cc12: > 100 µM
11. CC(=O)OC1C2CCC3CC2C2(SCCS2)C31 (stereo unspecified): > 100 µM

###

- Tested on: CCRF-CEM leukemia
- experiment-summary: NCI tumour cell line growth inhibition, 48 h; in the data active means GI50 below about 0.43 µM; inactive means the rest
Classes used: yes (1) (active), no (0) (inactive)

1. CN(C)CCN=c1nc2c(c(N)n1-c1ccccc1)c(=S)n(-c1ccccc1)c(=S)n2-c1ccccc1: no (0)
2. COc1ccc(CN2c3ccccc3Sc3ccccc32)cc1O: yes (1)
3. COc1ccc(/C=C(\C#N)c2cc(OC)c(OC)c(OC)c2)cc1: yes (1)
4. COc1ccc(N=c2nc3sc4cc(Cl)ccc4n3c(N)c2C#N)cc1: no (0)
5. O=C1c2ccccc2-c2c1c1ccccc1c(=O)n2CCNCCNCCNCCNCCn1c2c(c3ccccc3c1=O)C(=O)c1ccccc1-2: yes (1)
6. Cc1nc(C(=O)OCc2ccccc2)cc(OCc2ccccc2)c1C: no (0)
7. O=C(O)C(Cc1ccccc1)N1C(=O)/C(=C/C(Cl)=C/c2ccc([N+](=O)[O-])cc2)SC1=S (stereo not given): no (0)
8. CCOC(=O)/C=C/c1ccc([N+](=O)[O-])o1: no (0)
9. CN(Cc1cnc2nc(N)nc(N)c2n1)c1c(Cl)cc(C(=O)NC(CCC(=O)O)C(=O)O)cc1Cl (stereo not given): yes (1)
10. O=C(OCC1=CC(=O)c2ccccc2C1=O)c1ccccc1: no (0)

###

As shown below, each of these compounds has a reported TGI value.
- Test system: RPMI-8226 leukemia
- experiment-summary: NCI tumour cell line growth inhibition, 48 h
parameter: TGI

1) COc1ccc2c(c1)[n+](=O)c(/C=C/C(=O)c1cc(OC)c(OC)c(OC)c1)c(C)n2[O-]: 15.6 µM
2) Cc1cccc(NC(=S)Nc2cccc(Cl)c2)n1: > 100 µM
3) CC(=O)N1CCOC12N=NC(C)(C)O2 (stereo not given): > 100 µM
4) CN1Cc2ccccc2C2(COc3ccccc3C2=O)C1 (stereo not given): > 100 µM
5) CCNC1CC(n2cc(C)c(=O)[nH]c2=O)OC1CO (stereo not given): > 100 µM
6) N/C(=N\N=C/c1c(O)cc(O)cc1O)NO: > 100 µM
7) C[C@]12CC[C@H](OC(=O)Nc3ccccc3)CC1=CC[C@@H]1C2CC[C@]2(C)/C(=N/OC(=O)Nc3ccccc3)CCC12 (stereo not given in full): > 100 µM
8) O=c1cc(-c2ccccc2)oc2cc(OCCCCCCCCCCOc3ccc4c(=O)cc(-c5ccccc5)oc4c3)ccc12: > 100 µM
9) O=Cc1c2c(cc3c1CC1(C3)Cc3cc4c(c(C=O)c3C1)CCC4)CCC2: > 100 µM
10) OC(Cc1cccc2ccccc12)CN1CCC(c2ccccc2)CC1 (stereo not given): 31.8 µM

###

- System: DLD-1 colon
- experiment-summary: NCI tumour cell line growth inhibition, 48 h
Starred links: 1 amine or outer side, 2 acyl side, 3 side chain; linkers in the order of their positions; H or OH if unused. Positions of bridges follow the written chain, without caps; N, C: chain ends. Non-standard residues stand in square brackets, D forms with d. Residues, ends and D or L forms follow the SMILES beside them. *: point of attachment. X3 = CC(C)C(C)C(C(=O)[*:2])N(C)[*:1]; Picolinoyl(3-OH) = O=C(c1ncccc1O)*; NMePhg = CN[CH](C(=O)O)c1ccccc1; Hyp = O=C(O)[CH]1C[CH](O)CN1; Sar = CNCC(=O)O
Below is a list of entries, each paired with its recorded TGI value.
parameter: TGI

1. C/C(=C\c1ccccc1)C(=O)c1c(C)cc(C)cc1C: > 100 µM
2. CC(C)CC1NC(=O)C(NC(=O)c2ncccc2O)C(C)OC(=O)C(c2ccccc2)N(C)C(=O)C(C)NC(=O)C(C(C)C(C)C)N(C)C(=O)CN(C)C(=O)C2CC(O)CN2C1=O (stereo not given) ({Picolinoyl(3-OH)}-TL[Hyp][Sar][X3]A[NMePhg]; ester 1-C; configuration not given here): > 125 µM
3. CCOC(=O)NN1C(=O)C(=P(c2ccccc2)(c2ccccc2)c2ccccc2)C(C(=O)OC)=C1C: > 100 µM
4. N.N.N.N.O=S([O-])[O-].[Co+3].[N-]=[N+]=[N-]: > 100 µM
5. O=C(C#Cc1ccccc1)NC/C=C/c1ccccc1: > 100 µM
